Every entry's value here was drawn from patent US8927500B2.

Exercise: state measured pKi for each of the molecules provided.
- SUBJECT OF TEST: MDMX (Homo sapiens, UniProt O15151)
- Sequence (O15151 1-125): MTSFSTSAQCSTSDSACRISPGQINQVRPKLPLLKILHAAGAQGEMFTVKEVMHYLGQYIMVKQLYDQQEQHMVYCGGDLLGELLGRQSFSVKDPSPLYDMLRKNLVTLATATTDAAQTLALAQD
- METHOD SUMMARY: Competitive fluorescence polarization assay for MDMX
- Assay type: binding
- RUN CONDITIONS: competitive FP assay, read-out: Ki (MDMX)
pKi: −log10 of the molar value. Where a SMILES comes first, the peptide text is derived from it. Bridges are numbered along the chain shown (N, C = ends). [ ]: non-standard residue; d: D form. R8 = C=CCCCCCC[C@@](C)(N)C(=O)O; S5 = C=CCCC[C@](C)(N)C(=O)O; Nle = CCCC[C@H](N)C(=O)O

molecule="CCCC[C@H](NC(=O)[C@H](Cc1c[nH]c2ccccc12)NC(=O)[C@H](C)NC(=O)[C@]1(C)CCCC=CCCCCCC[C@@](C)(NC(=O)[C@H](Cc2ccccc2)NC(=O)[C@@H](NC(=O)[C@H](CCC(=O)O)NC(C)=O)[C@@H](C)O)C(=O)N[C@@H](C)C(=O)N[C@@H](Cc2ccc(O)cc2)C(=O)N[C@@H](Cc2c[nH]c3ccccc23)C(=O)N[C@@H](C)C(=O)N[C@@H](CCC(N)=O)C(=O)N[C@@H](CC(C)C)C(=O)N1)C(=O)N[C@H](C)C(N)=O [compound 276] (Ac-ETF[R8]AYWAQL[S5]AW[Nle][dA]-NH2; staple 4-11)" value_reported="> 8.00"

Exercise: If you can, please state the reported pKi value of CC(=O)N[C@@H](CC(C)C)C(=O)N[C@H](C(=O)N[C@@H](Cc1ccccc1)C(=O)N[C@]1(C)CCCCCCC=CCCC[C@@](C)(C(=O)N[C@@H](C)C(=O)N[C@@H](C)C(=O)N[C@H](C)C(N)=O)NC(=O)[C@H](CC(C)C)NC(=O)[C@H](CCC(N)=O)NC(=O)[C@H](C)NC(=O)[C@H](Cc2c[nH]c3ccccc23)NC(=O)[C@H](Cc2ccc(O)cc2)NC(=O)[C@H](CCC(=O)O)NC1=O)[C@@H](C)O [compound 587] (Ac-LTF[R8]EYWAQL[S5]AA[dA]-NH2; staple 4-11) .
Solution: > 8.00

====

- SUBJECT OF TEST: MDM2 (Homo sapiens)
- METHOD SUMMARY: Competitive fluorescence polarization assay for MDM2
- Format: binding
- RUN CONDITIONS: competitive FP assay, MDM2; read-out: IC50 (MDM2)
pIC50: −log10 of the molar value.
QUANTITY KIND: pIC50

Exercise: For the compound CCCC[C@H](NC(=O)[C@H](C)NC(=O)[C@H](C)NC(=O)[C@]1(C)CCCC=CCCCCCC[C@@](C)(NC(=O)[C@H](Cc2ccccc2)NC(=O)[C@@H](NC(=O)[C@H](CC(C)C)NC(C)=O)[C@@H](C)O)C(=O)N[C@@H](C)C(=O)N[C@@H](Cc2ccc(O)cc2)C(=O)N[C@@H](Cc2c[nH]c3ccccc23)C(=O)N[C@@H](C)C(=O)N[C@@H](CCC(N)=O)C(=O)N[C@@H](CC(C)C)C(=O)N1)C(=O)N[C@@H](C)C(=O)O (single isomer, unassigned) [compound 421] , what pIC50 is on record?
Solution: > 8.00

====

Would you mind telling me the reported IC50 of each entry?
- SUBJECT OF TEST: MDMX (Homo sapiens)
- METHOD SUMMARY: Competitive fluorescence polarization assay for MDMX
- Type: binding
- RUN CONDITIONS: competitive FP assay, read-out: IC50 (MDMX)
Where a SMILES comes first, the peptide text is derived from it. Bridges are numbered along the chain shown (N, C = ends). [ ]: non-standard residue; d: D form. R8 = C=CCCCCCC[C@@](C)(N)C(=O)O; hLeu = CC(C)CC[C@H](N)C(=O)O; S5 = C=CCCC[C@](C)(N)C(=O)O

compound="CC(=O)N[C@@H](CC(C)C)C(=O)N[C@H](C(=O)N[C@@H](Cc1ccccc1)C(=O)N[C@]1(C)CCCCCC/C=C\\CCC[C@@](C)(C(=O)N[C@@H](CO)C(=O)N[C@@H](C)C(=O)N[C@@H](C)C(N)=O)NC(=O)[C@H](CCC(C)C)NC(=O)[C@H](CCC(N)=O)NC(=O)[C@H](C)NC(=O)[C@H](Cc2c[nH]c3ccccc23)NC(=O)[C@H](Cc2ccc(O)cc2)NC(=O)[C@H](C)NC1=O)[C@@H](C)O [compound 114] (Ac-LTF[R8]AYWAQ[hLeu][S5]SAA-NH2; staple (Z) 4-11)" value_reported="100 to 1000 nM"

Exercise: // returns reported IC50 for input CC(=O)N[C@@H](CC(C)C)C(=O)N[C@H](C(=O)N[C@@H](Cc1ccccc1)C(=O)N[C@]1(C)CCCCCCC=CCCC[C@@](C)(C(=O)N[C@@H](CO)C(=O)N[C@H](C(=O)N[C@@H](C)C(N)=O)C(C)C)NC(=O)[C@H](CC(C)C)NC(=O)[C@H](CCC(N)=O)NC(=O)[C@H](C)NC(=O)[C@H](Cc2c[nH]c3ccccc23)NC(=O)[C@H](Cc2ccc(O)cc2)NC(=O)[C@H](C(C)C)NC1=O)[C@@H](C)O (single isomer, unassigned)
Solution: 100 to 1000 nM

====

- SUBJECT OF TEST: MDMX (Homo sapiens)
- METHOD SUMMARY: Competitive fluorescence polarization assay for MDMX
- Format: binding
- RUN CONDITIONS: competitive FP assay, read-out: Ki (MDMX)
Give measured Ki for each item. Keep answers brief.

molecule="CC(=O)N[C@@H](CC(C)C)C(=O)N[C@H](C(=O)N[C@@H](Cc1ccccc1)C(=O)N[C@]1(C)CCCCCCC=CCCC[C@@](C)(C(=O)N[C@@H](C)C(=O)N[C@@H](C)C(=O)N[C@H](C(=O)N[C@H](C)C(N)=O)C(C)C)NC(=O)[C@H](CC(C)C)NC(=O)[C@H](CCC(N)=O)NC(=O)[C@H](C)NC(=O)[C@H](Cc2c[nH]c3ccccc23)NC(=O)[C@H](Cc2ccc(O)cc2)NC(=O)[C@H](CCC(=O)O)NC1=O)[C@@H](C)O (single isomer, unassigned) [compound 221]" value_reported="10 to 100 nM"

Now turn to the next molecule.
Exercise: Requested field: Ki. Item: CC[C@H](C)[C@H](NC(C)=O)C(=O)N[C@H](C(=O)N[C@@H](Cc1ccccc1)C(=O)N[C@]1(C)CCCCCCC=CCCC[C@@](C)(C(=O)N[C@@H](C)C(=O)N[C@@H](Cc2c[nH]cn2)C(=O)N[C@@H](Cc2ccccc2)C(=O)N[C@@H](C)C(N)=O)NC(=O)[C@H](CC(C)C)NC(=O)[C@H](CCC(N)=O)NC(=O)[C@H](C)NC(=O)[C@H](Cc2c[nH]c3ccccc23)NC(=O)[C@H](Cc2ccc(O)cc2)NC(=O)[C@H](Cc2ccccc2)NC1=O)[C@@H](C)O (single isomer, unassigned) [compound 185]
Solution: 100 to 1000 nM

====

- SUBJECT OF TEST: MDM2 (Homo sapiens, UniProt Q00987)
- Sequence (Q00987 1-125): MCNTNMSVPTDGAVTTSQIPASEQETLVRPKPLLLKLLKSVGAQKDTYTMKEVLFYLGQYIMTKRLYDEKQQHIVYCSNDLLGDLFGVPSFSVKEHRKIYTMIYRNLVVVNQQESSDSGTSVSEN
- METHOD SUMMARY: Competitive fluorescence polarization assay for MDM2
- Type: binding
- RUN CONDITIONS: competitive FP assay, MDM2; read-out: Ki (MDM2)
pKi: −log10 of the molar value. Where a SMILES comes first, the peptide text is derived from it. Bridges are numbered along the chain shown (N, C = ends). [ ]: non-standard residue; d: D form. R8 = C=CCCCCCC[C@@](C)(N)C(=O)O; Cba = N[C@@H](CC1CCC1)C(=O)O; S5 = C=CCCC[C@](C)(N)C(=O)O; Nle = CCCC[C@H](N)C(=O)O
QUANTITY KIND: pKi

molecule="CC(=O)N[C@@H](CCC(=O)O)C(=O)N[C@H](C(=O)N[C@@H](Cc1ccccc1)C(=O)N[C@]1(C)CCCCCCC=CCCC[C@@](C)(C(=O)N[C@@H](CO)C(=O)N[C@H](C(=O)N[C@@H](CO)C(N)=O)C(C)C)NC(=O)[C@H](CC(C)C)NC(=O)[C@H](CCC(N)=O)NC(=O)[C@H](C)NC(=O)[C@H](Cc2c[nH]c3ccccc23)NC(=O)[C@H](Cc2ccc(O)cc2)NC(=O)[C@H](C(C)C)NC1=O)[C@@H](C)O [compound 130] (Ac-ETF[R8]VYWAQL[S5]SVS-NH2; staple 4-11)" quantity_kind=pKi value_reported="> 8.00"

Please turn your attention to the following entry.
Exercise: For CCCC[C@H](NC(=O)[C@H](C)NC(=O)[C@H](C)NC(=O)[C@]1(C)CCCC=CCCCCCC[C@@](C)(NC(=O)[C@H](Cc2ccccc2)NC(=O)[C@@H](NC(=O)[C@H](CC(C)C)NC(C)=O)[C@@H](C)O)C(=O)N[C@@H](CCC(=O)O)C(=O)N[C@@H](Cc2ccc(O)cc2)C(=O)N[C@@H](Cc2c[nH]c3ccccc23)C(=O)N[C@@H](C)C(=O)N[C@@H](CCC(N)=O)C(=O)N[C@@H](CC2CCC2)C(=O)N1)C(=O)N[C@@H](C)C(N)=O [compound 238] (Ac-LTF[R8]EYWAQ[Cba][S5]AA[Nle]A-NH2; staple 4-11) , what is its reported pKi?
Solution: > 8.00
